The measured values listed here are drawn from patent US9409903B2.

Quick list: inhibition at 1 µM per entry.
molecular target: Ret kinase (Homo sapiens, UniProt P07949); construct: purchased Millipore (KinaseProfiler service); also Reaction Biology Corp. (Kinase Hotspot); experiment: Ret kinase inhibition assay (KinaseProfiler / Kinase Hotspot); format: biochemical; settings: compound at 1 μM
Sequence (P07949 29-1114): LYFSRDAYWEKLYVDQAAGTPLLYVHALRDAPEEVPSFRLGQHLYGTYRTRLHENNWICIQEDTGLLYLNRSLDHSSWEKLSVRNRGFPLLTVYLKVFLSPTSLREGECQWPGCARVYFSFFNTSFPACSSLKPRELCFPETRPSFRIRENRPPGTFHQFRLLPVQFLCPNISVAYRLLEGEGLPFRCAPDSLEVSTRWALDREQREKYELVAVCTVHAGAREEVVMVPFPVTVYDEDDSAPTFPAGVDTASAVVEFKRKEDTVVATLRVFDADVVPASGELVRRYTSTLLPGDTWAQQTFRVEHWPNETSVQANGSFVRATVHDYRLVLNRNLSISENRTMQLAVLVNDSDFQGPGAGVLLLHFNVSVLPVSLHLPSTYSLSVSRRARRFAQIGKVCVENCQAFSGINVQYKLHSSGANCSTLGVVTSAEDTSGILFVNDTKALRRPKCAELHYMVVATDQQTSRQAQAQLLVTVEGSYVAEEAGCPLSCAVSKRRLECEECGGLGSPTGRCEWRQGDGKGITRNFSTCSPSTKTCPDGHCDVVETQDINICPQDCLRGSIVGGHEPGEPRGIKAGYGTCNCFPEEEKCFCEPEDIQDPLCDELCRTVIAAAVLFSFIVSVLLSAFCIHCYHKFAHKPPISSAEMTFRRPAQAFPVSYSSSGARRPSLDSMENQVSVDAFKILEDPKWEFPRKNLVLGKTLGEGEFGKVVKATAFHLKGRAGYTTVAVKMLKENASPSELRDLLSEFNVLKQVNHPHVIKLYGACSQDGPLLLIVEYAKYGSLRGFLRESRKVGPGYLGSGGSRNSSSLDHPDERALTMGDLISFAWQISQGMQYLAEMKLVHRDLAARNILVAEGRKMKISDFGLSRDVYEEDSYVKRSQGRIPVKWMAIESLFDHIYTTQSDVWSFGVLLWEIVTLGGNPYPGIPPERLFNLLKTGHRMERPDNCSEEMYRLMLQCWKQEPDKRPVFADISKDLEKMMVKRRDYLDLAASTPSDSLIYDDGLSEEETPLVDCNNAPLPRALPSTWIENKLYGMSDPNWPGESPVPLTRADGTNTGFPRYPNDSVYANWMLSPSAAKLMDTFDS
PROPERTY: inhibition at 1 µM

> print(dat)
                               smiles.string            property   observed
 1  CN1CCN(c2nc(Nc3cc(-c4ccco4)[nH]n3)nc(N(C)Cc3ccc(F)cc3)n2)CC1  inhibition at 1 µM      < 50%
 2  CN1CCN(c2nc(Nc3cc(-c4ccco4)[nH]n3)nc(OCc3ccccc3)n2)CC1  inhibition at 1 µM      < 50%
 3  CN1CCN(c2nc(NCc3ccccc3)nc(Nc3ncc(-c4ccccc4)s3)n2)CC1  inhibition at 1 µM      < 50%
 4  C[C@H](Nc1nc(Nc2cc(-c3ccco3)[nH]n2)nc(N2CCN(C)CC2)n1)c1ccc(F)cc1  inhibition at 1 µM      > 90%
 5  Cc1cnc(Nc2nc(NCc3ccccc3)nc(N3CCN(C)CC3)n2)s1  inhibition at 1 µM      > 90%
 6  Cc1cnc(Nc2nc(NCc3ccc(F)cc3)nc(N3CCN(C)CC3)n2)s1  inhibition at 1 µM  50 to 90%
 7  CC(C)c1cnc(Nc2nc(N[C@@H](C)c3ccc(F)cc3)nc(N3CCN(C)CC3)n2)s1  inhibition at 1 µM  50 to 90%
 8  CN1CCN(c2nc(NCc3ccc(F)cc3)nc(Nc3cc(-c4ccco4)[nH]n3)n2)CC1  inhibition at 1 µM      < 50%
 9  CN1CCN(c2nc(NCc3ccccc3)nc(Nc3cc(-c4ccco4)[nH]n3)n2)CC1  inhibition at 1 µM      < 50%
10  CC(C)c1cnc(Nc2nc(N[C@H](C)c3ccc(F)cc3)nc(N3CCN(C)CC3)n2)s1  inhibition at 1 µM      < 50%
